target: Caspase-3 (Homo sapiens) (UniProt P42574); experiment: procaspase-3 enzyme activation – biochemical, absorbance, PC-3 D3A mutant, single concentration, primary screen (AID 463141); conditions: recombinant procaspase-3 D3A, Ac-DEVD-pNA absorbance 405 nm; at 8.5 µM
Sequence (P42574 whole entry D9A/D28A/D175A): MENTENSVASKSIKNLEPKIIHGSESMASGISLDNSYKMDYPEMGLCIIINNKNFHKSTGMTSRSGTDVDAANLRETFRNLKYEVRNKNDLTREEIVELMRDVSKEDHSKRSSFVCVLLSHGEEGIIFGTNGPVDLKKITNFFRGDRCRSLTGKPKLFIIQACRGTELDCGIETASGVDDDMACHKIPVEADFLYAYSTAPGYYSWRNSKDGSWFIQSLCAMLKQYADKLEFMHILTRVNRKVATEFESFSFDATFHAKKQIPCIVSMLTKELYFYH
The campaign covered roughly 330,000 compounds. About 350 (0.11%) were called active.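 The calls were made as follows: active = activation above the mean of all tested compounds plus 3 SD (cut at about 21% in these data); inactive = the rest.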 The sample as a whole holds a higher share of actives than the screen did.
Give your call using only these classes: active, inactive

compound | answer label
CCN(CC)S(=O)(=O)c1ccc(N2CCN(C)CC2)c(NC(=O)Nc2ccccc2F)c1 | inactive

QUERY: Each compound tested received a call. Report the one for O=C(CCCn1c(=O)c2sccc2n(CC(=O)NCC2CCCO2)c1=O)NCc1ccco1 (stereo unspecified) .
RESULT: inactive
